The reported measurements were obtained from ChEMBL document CHEMBL1157539.

# Tested on: HepG2
# METHOD: GSK_TCMDC: Percent inhibition of human HepG2 cell line. Test compounds present at 10uM.
# Assay type: functional
Rule: Inhibition under 20% gives no (0), otherwise yes (1).

Consider the worked cases shown below.
COCCNCc1cccc(-c2ccccc2CN(C(=O)Nc2ccccc2)C2CCN(Cc3ccccc3)CC2)c1.O=C(O)C(F)(F)F = yes (1)
CN1C(=O)[C@H](NC(=O)[C@@H](Cc2ccccc2)NC(=S)Nc2ccccc2)N=C(c2ccccc2)c2ccccc21 = no (0)
O=C(/C=C/c1ccc(Cl)c(Cl)c1)N1CCC(CN2CCC(c3c[nH]c4cc(C(F)(F)F)ccc34)CC2)CC1 = no (0)

Query :: Could you verify whether the entry "CCN1CCC(N2CCC(n3c(C)nc4cc(C(F)(F)F)ccc43)CC2)CC1" shows Inhibition of no less than 20%?
Result :: no (0)

Query :: API: above_or_equal(metric=Inhibition, cutoff=20%) for item COC(=O)c1ccc(CC(C)NCC(O)c2cccc(C(F)(F)F)c2)c(Cl)c1 (centres undefined)
Result :: no (0)

Query :: # check: Inhibition of "O=C(CCc1ccco1)NC1CCN(CC2(c3ccc(Cl)cc3)CCC2)CC1" is greater than or equal to 20%
Result :: no (0)

Query :: Is Inhibition at least 20%? Consider Cc1[nH]c2cc(Cl)ccc2c1C1=CCN(CCCCC2(C)C(=O)Nc3c(F)cccc32)CC1 (centres undefined)
Result :: no (0)

Query :: Is Inhibition at least 20%? Consider "CC(=O)N(Cc1cccc(-c2cccc(CNCc3ccc4c(c3)OCO4)c2)c1)C1CCN(Cc2ccccc2)CC1.O=C(O)C(F)(F)F"
Result :: no (0)

Query :: Assess whether reported Inhibition for CCCCC/C=C/C(=O)NC1CCC(CN2CCC(c3c[nH]c4ccccc34)CC2)CC1 (centres undefined) sits at 20% or higher.
Result :: no (0)

Query :: // inclusive: Inhibition at least 20%? input: Cc1c(C(=O)NC2CCC(CN3CCC(c4c[nH]c5ccccc45)CC3)CC2)cnn1-c1c(Cl)cc(Cl)cc1Cl (centres undefined)
Result :: yes (1)

Query :: Check the entry "CCCCCCC(C)(C)c1cc(O)c2c3c(c(=O)oc2c1)CCN(Cc1ccccc1)C3.Cl" : does Inhibition equal or exceed 20%?
Result :: no (0)

Query :: Please check the record CC(=O)C1(c2ccccc2)CCN(CCC2(c3ccc(Cl)c(Cl)c3)CN(C(=O)Nc3cc(F)cc(F)c3)CCO2)CC1 (centres undefined) and state if its Inhibition is at or above 20%.
Result :: no (0)

Query :: Hi, just wondering whether COc1cc(C(=O)NC2CCC(CN3CCC(c4c[nH]c5ccccc45)CC3)CC2)cc(Cl)n1 (centres undefined) shows Inhibition of 20% or higher.
Result :: yes (1)

Query :: Exam item: decide whether the reported Inhibition for CCCCCCC(CC)c1cc(O)c2c(c1)OC(C)(C)c1ccncc1-2.Cl (centres undefined) is at least 20%.
Result :: no (0)

Query :: Determine whether measured Inhibition meets or exceeds 20% for "Cc1cc(N(C)C2CCN(C)CC2)nc(Nc2ccc(Br)cc2)n1"
Result :: no (0)

* * *

# Tested on: Plasmodium falciparum
# METHOD: GSK_TCMDC: Inhibition of Plasmodium falciparum 3D7 in whole red blood cells, using parasite LDH activity as an index of growth. Test compounds present at 2uM
# Type: functional
READOUT TYPE: Inhibition (%)
Only the number, expressed in %, is required.

Oc1ccccc1CN1CCC(CCOC(c2ccccc2)c2ccc(Cl)cc2)CC1 (centres undefined) = 97
CCCCC/C=C/C(=O)NC1CCC(CN2CCC(c3c[nH]c4ccccc34)CC2)CC1 (centres undefined) = 87
CC[C@H]1CN2CC[C@@H]1C[C@H]2[C@H](O)c1cc(-c2c(C)noc2C)nc2ccc(OC)cc12.Cl = 100
CC(Cc1ccc(SCCSc2ccccc2)cc1)NCC(O)c1cccc(Cl)c1 (centres undefined) = 98
COC(=O)c1ccc(CC(C)NCC(O)c2ccc(F)c(Cl)c2)cc1.Cl (centres undefined) = 98

Query :: Field request: Inhibition | item: Cl.O=C(/C=C/c1ccc(Cl)c(Cl)c1)NC1C2CCC1CC(CN1CCC(c3c[nH]c4ccccc34)CC1)C2 (centres undefined)
Result :: 100

Query :: Value lookup for Inhibition; key = S=C(NCC1CCCCC1)NC1CCC(CN2CCC(c3c[nH]c4ccccc34)CC2)CC1 (centres undefined)
Result :: 88

Query :: Can you look up the measured Inhibition of "Br.COc1ccc(C[C@@H](C)NC[C@H](O)c2cccc(Cl)c2)cc1F" for me?
Result :: 88

Query :: Data request, read-out Inhibition, for Cc1nc2ccccc2n1C1CC2CCC(C1)N2Cc1nccn1-c1ccccc1.O=C(O)C(F)(F)F (centres undefined)
Result :: 94

* * *

# System: Plasmodium falciparum
# METHOD: GSK_TCMDC: Inhibition of Plasmodium falciparum 3D7 in whole red blood cells, using parasite LDH activity as an index of growth. Test compounds present at 2uM
# Assay type: functional
READOUT TYPE: Inhibition (%)
A number alone suffices; assume %.

Use the examples below as a reference point.
Cl.O=C(CC1CCCC1)N(CC1CCN(Cc2ccc(C(F)(F)F)cc2)CC1)c1ccc(N2CCOCC2)c(F)c1 = 92
O=C(Cc1cc(=O)oc2cc(O)ccc12)N1CCC(CN2CCC(c3c[nH]c4ccccc34)CC2)CC1 = 94
CC[C@H]1CN2CC[C@H]1C[C@H]2[C@H](O)c1cc(/C=C/c2ccccc2)nc2ccc(OC)cc12 = 99

Query :: Param readout= Inhibition; system= Plasmodium falciparum; entry= S=C(Nc1ccccc1Cl)NC1CCC(CN2CCC(c3c[nH]c4ccccc34)CC2)CC1 (centres undefined) ; returns value.
Result :: 90

Query :: GET /values?readout=Inhibition&system=Plasmodium falciparum&item= COc1ccc(CC(C)NCC(O)c2cccc(Br)c2)cc1 (centres undefined)
Result :: 99

Query :: Value wanted: Inhibition (Plasmodium falciparum) of entry "CCCCCCCc1cc(O)c2c(c1)OC(C)(C)c1ccncc1-2.Cl"
Result :: 95

Query :: Lookup: Inhibition / Plasmodium falciparum / "CC[C@H]1CN2CC[C@H]1C[C@H]2[C@H](O)c1cc(Cl)nc2ccc(OC)cc12"
Result :: 100

Query :: API: value(readout=Inhibition, system=Plasmodium falciparum) for record "CC(C)CNCc1ccc(-c2cccc(CN(C(=O)CCC3CCCC3)C3CCN(Cc4ccccc4)CC3)c2)cc1.O=C(O)C(F)(F)F"
Result :: 100

Query :: Write down the reported Inhibition of "S=C(NCCc1ccc(Cl)cc1)N1CCC(CN2CCC(c3c[nH]c4ccccc34)CC2)CC1" , test system: Plasmodium falciparum.
Result :: 90

* * *

# System: Plasmodium falciparum
# METHOD: GSK_TCMDC: Inhibition of Plasmodium falciparum 3D7 in whole red blood cells, using parasite LDH activity as an index of growth. Test compounds present at 2uM
# Assay type: functional
As shown below, each of these molecules has a reported Inhibition value.
Report the figure in % without appending any unit label.

Answered cases to consult:
O=C(Nc1ccc(CN2CCC(c3c[nH]c4ccc(O)cc34)CC2)cc1)c1ccc(-c2ccccc2)cc1 = 100
COC(C(=O)OCCC1CCCN1C)(c1ccccc1)c1ccccc1 (centres undefined) = 98
CN(c1cc(NC(=O)c2ccc(F)cc2)ccn1)C1CCN(Cc2cccc(F)c2)CC1.O=C(O)C(F)(F)F = 100
CC(Cc1ccc(OCc2ccc(CCN(C)C)cc2)cc1)NCCc1cccc(Cl)c1 (centres undefined) = 100

Query :: Entry "Br.CNCCc1c(O)ccc2ccccc12" has what Inhibition?
Result :: 94

Query :: May I ask what Inhibition has been recorded for "CCN1CC=C(c2c[nH]c3ccccc23)CC1" ?
Result :: 84

Query :: # query: Inhibition of entry "Cc1nc(C)c(-c2ccc(Oc3ccc(OC(F)(F)F)cc3)cc2)c(OC(=O)N(CCNC(C)C)C(C)C)c1Br.Cl"
Result :: 98

Query :: For the molecule "O=C(NC1CCN(CCc2c[nH]c3ccc(F)cc23)CC1)c1ncc(-c2ccccc2)[nH]1.O=C(O)C(F)(F)F" , what Inhibition is on record?
Result :: 100

Query :: Can you share its Inhibition? I mean this molecule: "Cl.N=c1c2c(n(Cc3ccc(Cl)cc3Cl)c3c1CCC3)CCCC2"
Result :: 94

Query :: Requested field: Inhibition. Item: CC(=O)C1(c2ccccc2)CCN(CCC2(c3ccc(Cl)c(Cl)c3)CN(C(=O)Nc3cc(F)cc(F)c3)CCO2)CC1 (centres undefined)
Result :: 86

Query :: Any idea what its Inhibition is? The molecule is CCCCCc1cc(O)c2c(c1)OC(C)(C)CC2C1=CCN(Cc2ccccc2)CC1 (centres undefined)
Result :: 99

Query :: Give the measured Inhibition of "O=C(NC1CCN(CC2(c3ccc(Cl)cc3)CCC2)CC1)c1cc[nH]n1" .
Result :: 96

Query :: So what's the measured Inhibition for this one? CC(Cc1ccc(C(C)(C)C)cc1)NCC(O)c1ccccc1.Cl (centres undefined)
Result :: 94

Query :: I am curious: what Inhibition value has been reported for O=C(O)/C=C\C(=O)O.OC1(c2ccc(Cl)c(C(F)(F)F)c2)CCN(CCOC2c3ccccc3CSc3ccc(Cl)cc32)CC1 (centres undefined) ?
Result :: 95

Query :: Using the record for CCCCCCC(C)c1cc(O)c2c(c1)OC(C)(C)c1ccncc1-2.Cl (centres undefined) , report its Inhibition.
Result :: 100
